Measured values drawn from patent US10196389B2 for this set.

biological target: human AMPK (α2β1γ1) (Homo sapiens, UniProt P54619+P54646+Q9Y478); test: AMPK (α2β1γ1) activation at molecular level, HTRF KinEASE-STK S1 kinase assay; details: activation of human AMPK (α2β1γ1), 4 μM ATP, 45 min at 30° C.
Sequence (P54646 whole entry): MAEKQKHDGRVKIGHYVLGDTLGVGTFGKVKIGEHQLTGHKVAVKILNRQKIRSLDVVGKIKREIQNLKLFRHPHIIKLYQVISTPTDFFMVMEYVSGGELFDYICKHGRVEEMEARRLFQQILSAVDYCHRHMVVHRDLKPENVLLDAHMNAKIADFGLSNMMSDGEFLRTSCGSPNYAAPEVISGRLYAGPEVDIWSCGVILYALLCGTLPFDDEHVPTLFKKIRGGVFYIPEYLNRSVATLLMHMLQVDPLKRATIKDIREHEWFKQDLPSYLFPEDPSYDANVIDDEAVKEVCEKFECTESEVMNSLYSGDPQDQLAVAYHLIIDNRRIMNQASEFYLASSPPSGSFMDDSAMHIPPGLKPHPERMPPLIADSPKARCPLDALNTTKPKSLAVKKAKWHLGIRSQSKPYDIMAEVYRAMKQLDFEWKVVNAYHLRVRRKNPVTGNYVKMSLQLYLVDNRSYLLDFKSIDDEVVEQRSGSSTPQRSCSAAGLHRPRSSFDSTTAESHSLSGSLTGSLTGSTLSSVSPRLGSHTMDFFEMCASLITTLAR
Sequence (Q9Y478 whole entry): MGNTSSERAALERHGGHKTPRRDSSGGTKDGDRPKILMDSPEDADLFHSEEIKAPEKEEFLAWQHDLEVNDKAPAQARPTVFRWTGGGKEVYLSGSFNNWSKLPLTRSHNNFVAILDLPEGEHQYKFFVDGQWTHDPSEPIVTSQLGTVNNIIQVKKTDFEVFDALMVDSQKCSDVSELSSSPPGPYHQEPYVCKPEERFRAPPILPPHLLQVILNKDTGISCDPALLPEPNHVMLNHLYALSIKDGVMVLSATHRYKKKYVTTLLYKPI
Sequence (P54619 whole entry): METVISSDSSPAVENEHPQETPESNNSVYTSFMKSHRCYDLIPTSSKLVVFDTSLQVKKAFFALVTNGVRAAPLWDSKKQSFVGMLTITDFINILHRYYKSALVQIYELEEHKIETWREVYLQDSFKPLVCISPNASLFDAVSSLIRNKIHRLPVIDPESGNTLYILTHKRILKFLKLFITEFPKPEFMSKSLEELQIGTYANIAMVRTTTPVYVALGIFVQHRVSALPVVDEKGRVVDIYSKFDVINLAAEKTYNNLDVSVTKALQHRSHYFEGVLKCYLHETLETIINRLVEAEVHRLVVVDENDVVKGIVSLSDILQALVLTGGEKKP
readout-label: EC50 (µM)
# output: bare number, implied unit µM

Asked: Recorded EC50 for C[C@@H](NC(=O)c1ccc(CN2C=C3C(=O)N(c4ccc(F)c(C(F)(F)F)c4)N=C3CC2)cc1)c1ccccc1 [ZM-14] , please?
Given back: 9.7

Asked: Recorded EC50 for CCNC(=O)c1ccc(CN2C=C3C(=O)N(c4ccc(F)c(C(F)(F)F)c4)N=C3CC2)cc1 [ZM-10] , please?
Given back: 10

Asked: Recorded EC50 for [2H]C([2H])([2H])Oc1ccc(CNC(=O)c2ccc(CN3C=C4C(=O)N(c5ccc(F)c(C(F)(F)F)c5)N=C4CC3)cc2)cc1OC [ZM-34] , please?
Given back: 6.3

Asked: Recorded EC50 for COc1ccc(CNC(=O)c2ccc(CN3C=C4C(=O)N(c5nc6ccccc6s5)N=C4CC3)cc2)cc1OC [ZM-18] , please?
Given back: 6.3

Asked: Recorded EC50 for COc1cc(CNC(=O)c2ccc(CN3C=C4C(=O)N(c5ccc(F)c(C(F)(F)F)c5)N=C4CC3)cc2)ccc1OC(F)F [ZM-27] , please?
Given back: 5

Asked: Recorded EC50 for CCOc1cc(CNC(=O)c2ccc(CN3CCc4c(c(=O)n(-c5ccc(F)c(C(F)(F)F)c5)n4C)C3)cc2)ccc1OC [ZM-26] , please?
Given back: 3

Asked: Recorded EC50 for COC(=O)c1ccc(CN2C=C3C(=O)N(c4ccc(F)c(C(F)(F)F)c4)N=C3CC2)cc1 [ZM-2] , please?
Given back: 5.8

Asked: Recorded EC50 for COc1ccc(CNC(=O)c2ccc(CN3CCC4=NN(c5ccc(F)c(C(F)(F)F)c5)C(=O)C4(C)C3)cc2)cc1OC (stereo not drawn) [ZM-33] , please?
Given back: 7.8

Asked: Recorded EC50 for COc1ccc(CNC(=O)c2ccc(CN3C=C4C(=O)N(c5cccc(C(F)(F)F)c5)N=C4CC3)cc2)cc1OC [ZM-16] , please?
Given back: 5.6

Asked: Recorded EC50 for CCOc1ccc(CNC(=O)c2ccc(CN3C=C4C(=O)N(c5ccc(F)c(C(F)(F)F)c5)N=C4CC3)cc2)cc1OC [ZM-23] , please?
Given back: 5.4

Asked: Recorded EC50 for O=C(NCc1ccc2c(c1)OCO2)c1ccc(CN2C=C3C(=O)N(c4ccc(F)c(C(F)(F)F)c4)N=C3CC2)cc1 [ZM-12] , please?
Given back: 5

Asked: Recorded EC50 for O=C(NCc1cccc2c1OCO2)c1ccc(CN2C=C3C(=O)N(c4ccc(F)c(C(F)(F)F)c4)N=C3CC2)cc1 [ZM-13] , please?
Given back: 3.3
